test system: E. coli TESEC Mtb DapB; assay: growth (OD600 after 10 h); higher = more growth (less inhibition); conditions: arabinose induction (level): Low; compound 0.1 mM; raw OD600 reference: median of DMSO wells 0.227, cell-free background 0.041
Counter-ions that a name gives are not always drawn.
For each record, write down the corresponding growth.

Would you mind listing growth for each of the following compounds?
1. CC1c2cccc(O)c2C(O)=C2C(=O)C3(O)C(O)=C(C(N)=O)C(=O)C(N(C)C)C3C(O)C21 (stereo not given) [Doxycycline hydrochloride]
2. CCC[C@@H]1C[C@@H](C(=O)N[C@@H]([C@H]2O[C@H](SC)[C@H](O)[C@@H](O)[C@H]2O)[C@@H](C)O)N(C)C1 [Lincomycin hydrochloride]
3. Cc1cc(-n2c(=O)[nH]c(=O)n(C)c2=O)ccc1Oc1ccc(SC(F)(F)F)cc1
4. C=C1c2c(Cl)ccc(O)c2C(O)=C2C(=O)[C@]3(O)C(O)=C(C(N)=O)C(=O)[C@@H](N(C)C)[C@@H]3[C@@H](O)[C@H]12.O=C(O)c1cc(S(=O)(=O)O)ccc1O [Meclocycline sulfosalicylate]

1. 0.0531
2. 0.179
3. 0.254
4. 0.0547

# assay system E. coli TESEC Mtb DapB: give growth of CC/C(=C(\c1ccccc1)c1ccc(OCCN(C)C)cc1)c1ccccc1 [Tamoxifen citrate]
0.0937

* * *

tested on: E. coli TESEC Mtb DapB; experiment: growth (OD600 after 10 h); higher = more growth (less inhibition); settings: arabinose induction (level): Low; compound 0.1 mM; raw OD600 reference: median of DMSO wells 0.227, cell-free background 0.041
Counter-ions that a name gives are not always drawn.
# if value of growth reaches 0.2, tag YES; if it stays below, tag NO

Reference set (10 entries):
| compound | system tested | group |
| --- | --- | --- |
| CN(C)CCOC1=Cc2ccccc2Sc2ccc(Cl)cc21 [Zotepine] | E. coli TESEC Mtb DapB | NO |
| CCN(CCO)CCCC(C)Nc1ccnc2cc(Cl)ccc12 (stereo not given) [Hydroxychloroquine sulfate] | E. coli TESEC Mtb DapB | YES |
| C=C(CC)C(=O)c1ccc(OCC(=O)O)c(Cl)c1Cl | E. coli TESEC Mtb DapB | NO |
| C[C@@](Cc1ccc(O)c(O)c1)(NN)C(=O)O | E. coli TESEC Mtb DapB | NO |
| CC(C)NC[C@@H](O)COc1ccc(CC(N)=O)cc1 [(R)-(+)-Atenolol] | E. coli TESEC Mtb DapB | YES |
| c1ccc(CN(CC2=NCCN2)c2ccccc2)cc1 [Antazoline hydrochloride] | E. coli TESEC Mtb DapB | YES |
| Cc1scc2c1N(C(=O)CN1CCN(C)CC1)c1ccccc1NC2=O [Telenzepine dihydrochloride] | E. coli TESEC Mtb DapB | YES |
| NNCCc1ccccc1 [Phenelzine sulfate] | E. coli TESEC Mtb DapB | YES |
| CCC[C@H](N[C@@H](C)C(=O)N1[C@H](C(=O)O)C[C@@H]2CCCC[C@@H]21)C(=O)OCC | E. coli TESEC Mtb DapB | YES |
| CN(C)CCOC(c1ccc(Cl)cc1)c1ccccn1 (stereo not given) [Carbinoxamine maleate salt] | E. coli TESEC Mtb DapB | YES |

Could you please find out whether C[C@]12CC[C@H]3[C@@H](CCC4=CC(=O)CC[C@@]43C)[C@@H]1CC[C@@H]2C(=O)CO has growth that meets 0.2 or exceeds it?
NO

Exam item: decide whether the reported growth for CO[C@@H]1[C@@H](O[C@@H]2O[C@H](C)[C@@H](O[C@H]3C[C@@](C)(O)[C@@H](OC(=O)CC(C)C)[C@H](C)O3)[C@H](N(C)C)[C@H]2O)[C@@H](CC=O)C[C@@H](C)[C@@H](O)/C=C/C=C/C[C@@H](C)OC(=O)C[C@H]1OC(C)=O is at least 0.2.
NO
